biological target: T1, human CD47 (human, UniProt Q08722 19-139); assay: SPR (Biacore T100 and ProteOn XPR36)
T1 construct: extracellular domain; also called CD47 ECD
T1 sequence (Q08722 19-139 limits assumed): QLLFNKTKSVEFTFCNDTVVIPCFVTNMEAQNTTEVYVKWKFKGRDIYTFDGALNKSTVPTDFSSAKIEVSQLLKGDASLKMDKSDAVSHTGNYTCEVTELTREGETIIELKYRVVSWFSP
pKd: −log10 of the molar value.
Label MET for high-side pKd (at or above 9) and NOT MET for low-side pKd (below it).

Query block: Reported pKd at or above 9? SIRP-α D1 variant polypeptide of SEQ ID NO: 208 (receptor) EEELQIIQPDKSVLVAAGETATLRCTITSLYPVGPIQWFRGAGPGRELIYNQREGPFPRVTTVSDTTKRNNMDFSIRIGAITPADAGTYYCVKFRKGIPDDVEFKSGAGTELSVRAKPS
Result block: MET

Query block: Also, SIRP-α D1 variant polypeptide of SEQ ID NO: 200 (receptor) EEELQIIQPDKSVLVAAGETATLRCTITSLFPVGPIQWFRGAGPGRELIYNQREGPFPRVTTVSDTTKRNNMDFSIRIGAITPADAGTYYCVKFRKGIPDDVEFKSGAGTELSVRAKPS please.
Result block: MET

Query block: Lookup SIRP-α D1 variant fused to Fc variant, SEQ ID NO: 214 (Fc fusion) EEELQVIQPDKSVLVAAGETATLRCTATSLFPVGPIQWFRGAGPGRELIYNQREGPFPRVTTVSDLTKRNNMDFSIRIGAITPADAGTYYCVKFRKGSPDDVEFKSGAGTELSVRAKPSERKSSVECPPCPAPPVAGPSVFLFPPKPKDTLMISRTPEVTCVVVDVSHEDPEVQFNWYVDGVEVHNAKTKPREEQFASTFRVVSVLTVVHQDWLNGKEYKCKVSNKGLPSSIEKTISKTKGQPREPQVYTLPPSREEMTKNQVSLTCLVKGFYPSDIAVEWESNGQPENNYKTTPPMLDSDGSFFLYSKLTVDKSRWQQGNVFSCSVMHEALHNHYTQKSLSLSPG
Result block: NOT MET

Query block: Moving on to SIRP-α D1 variant polypeptide of SEQ ID NO: 205 (receptor) EEELQIIQPDKSVLVAAGETATLRCTITSLRPVGPIQWFRGAGPGRELIYNQREGPFPRVTTVSDTTKRNNMDFSIRIGAITPADAGTYYCVKFRKGIPDDVEFKSGAGTELSVRAKPS
Result block: MET
